Reported values of phosphorylation enrichment for individual entries
- Measurement Target: Fes (UniProt P07332)
- Sequence (P07332 whole entry, looked up): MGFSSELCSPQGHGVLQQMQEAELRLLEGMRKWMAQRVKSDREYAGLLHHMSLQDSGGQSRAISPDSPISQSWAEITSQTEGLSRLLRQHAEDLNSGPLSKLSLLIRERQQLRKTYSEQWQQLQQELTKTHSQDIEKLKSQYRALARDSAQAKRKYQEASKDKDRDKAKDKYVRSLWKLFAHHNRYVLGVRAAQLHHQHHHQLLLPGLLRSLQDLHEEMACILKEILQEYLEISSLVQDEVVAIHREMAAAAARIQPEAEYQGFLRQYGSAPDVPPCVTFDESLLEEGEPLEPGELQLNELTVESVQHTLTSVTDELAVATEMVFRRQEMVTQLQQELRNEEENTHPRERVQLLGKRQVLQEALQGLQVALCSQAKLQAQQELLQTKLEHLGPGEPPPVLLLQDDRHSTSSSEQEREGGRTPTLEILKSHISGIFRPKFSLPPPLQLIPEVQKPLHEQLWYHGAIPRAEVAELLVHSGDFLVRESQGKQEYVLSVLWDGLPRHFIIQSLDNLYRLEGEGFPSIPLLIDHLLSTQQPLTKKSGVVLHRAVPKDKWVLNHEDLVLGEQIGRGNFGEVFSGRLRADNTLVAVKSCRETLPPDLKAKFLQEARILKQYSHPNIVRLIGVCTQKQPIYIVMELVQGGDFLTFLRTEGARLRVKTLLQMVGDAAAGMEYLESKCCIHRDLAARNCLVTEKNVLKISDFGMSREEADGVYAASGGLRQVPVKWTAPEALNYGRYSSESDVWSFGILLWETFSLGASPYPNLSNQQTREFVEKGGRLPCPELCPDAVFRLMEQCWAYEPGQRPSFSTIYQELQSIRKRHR
- Experimental Protocol: phosphorylation enrichment, bacterial display (enrichment ratio); higher = better substrate or ligand; peptides without Tyr show the background;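 also: 11-residue human phosphosite peptides and single-mutation variants displayed on the E. coli surface, counted by deep sequencing, each peptide's frequency after selection divided by its frequency in the unselected input library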;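 also: frequency after pTyr selection over input frequency; kinase dosed for 20-30% of maximal phosphorylation in three min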
Format: numeric value only, no unit, no commentary.

As a guide, the following entries are already answered.
Query Sequence	phosphorylation enrichment
YPPTHYIRRMP [SLC4A11_Y820_V824M]	0.597
DHTVNYVLKCR [PLEKHG4_Y1068_R1064H]	1.38

Turning to the following sequence.
Read the entry ILGLEYSLRLP [HELZ2_Y1304_V1308L] and write its reported phosphorylation enrichment.
1.44

* * *

- Measurement Target: EPHB2 (UniProt P29323)
- Sequence (P29323 whole entry, looked up): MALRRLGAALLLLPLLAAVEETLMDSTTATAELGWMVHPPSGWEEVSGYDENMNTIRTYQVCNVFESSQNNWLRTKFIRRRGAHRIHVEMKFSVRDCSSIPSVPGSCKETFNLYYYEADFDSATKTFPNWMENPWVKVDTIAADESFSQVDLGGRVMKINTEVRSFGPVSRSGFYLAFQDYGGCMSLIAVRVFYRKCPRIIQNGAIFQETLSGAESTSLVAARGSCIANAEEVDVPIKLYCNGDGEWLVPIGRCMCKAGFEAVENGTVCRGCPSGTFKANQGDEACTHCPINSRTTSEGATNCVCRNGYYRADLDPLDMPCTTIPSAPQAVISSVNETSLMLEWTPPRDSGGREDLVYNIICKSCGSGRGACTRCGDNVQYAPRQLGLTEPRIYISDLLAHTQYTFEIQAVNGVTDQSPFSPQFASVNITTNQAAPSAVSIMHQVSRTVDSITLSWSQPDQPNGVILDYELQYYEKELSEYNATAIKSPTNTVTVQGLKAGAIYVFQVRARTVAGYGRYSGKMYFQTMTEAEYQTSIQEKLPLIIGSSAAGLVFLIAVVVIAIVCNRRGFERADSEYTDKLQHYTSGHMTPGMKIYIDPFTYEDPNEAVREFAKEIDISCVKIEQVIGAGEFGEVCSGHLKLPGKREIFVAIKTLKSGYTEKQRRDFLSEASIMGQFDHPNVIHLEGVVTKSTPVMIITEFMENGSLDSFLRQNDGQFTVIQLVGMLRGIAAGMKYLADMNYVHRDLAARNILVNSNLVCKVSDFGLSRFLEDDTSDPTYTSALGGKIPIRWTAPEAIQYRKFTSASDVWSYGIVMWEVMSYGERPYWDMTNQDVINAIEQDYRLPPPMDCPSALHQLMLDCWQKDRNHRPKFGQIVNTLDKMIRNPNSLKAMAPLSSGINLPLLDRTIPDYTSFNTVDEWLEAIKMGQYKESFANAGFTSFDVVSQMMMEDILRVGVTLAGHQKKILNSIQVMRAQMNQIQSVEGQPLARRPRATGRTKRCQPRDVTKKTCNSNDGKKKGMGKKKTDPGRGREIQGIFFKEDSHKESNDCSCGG
- Experimental Protocol: phosphorylation enrichment, bacterial display (enrichment ratio); higher = better substrate or ligand; peptides without Tyr show the background
Measured Endpoint: phosphorylation enrichment

Read the entry SGGGSYGSGGG [KRT1_Y539] and write its reported phosphorylation enrichment.
0.282

Read the entry AKQVGYENAGT [PC_Y304] and write its reported phosphorylation enrichment.
0.446

Read the entry ASNFNYFYHRE [KCNA1_Y413_V408A] and write its reported phosphorylation enrichment.
0.65

Read the entry GAALAYGLDKS [HSPA9_Y230_A225G] and write its reported phosphorylation enrichment.
0.515

Read the entry TKDTFYKQPMV [GBA_Y451_F456V] and write its reported phosphorylation enrichment.
0.585

Read the entry KFMVGYEMLAQ [GALT_Y339] and write its reported phosphorylation enrichment.
0.504

Read the entry PLGKDYRKVEG [MAP1A_Y1909_A1912V] and write its reported phosphorylation enrichment.
0.768
